Biological target: Aryl hydrocarbon receptor (Homo sapiens)
Experiment: qHTS assay to identify small molecule that activate the aryl hydrocarbon receptor (AhR) signaling pathway (AID 743085); further: nearly all actives have a fitted effect of over 15% in size;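 on activation: HG2L7.5c1 human HepG2 liver cells with stably integrated DRE-driven firefly reporter; on the % scale 0 is the no-effect control and ±100 the full control effect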
Details: HepG2 AhR-luc (HG2L7.5c1), luciferase, 24 h; series mostly up to 70.3 µM
Description: U.S. Tox21 Program National Center for Advancing Translational Sciences [NCATS] NIH Chemical Genomics Center [NCGC] U.S. Environmental Protection Agency [EPA] National Institutes of Environmental Health Sciences [NIEHS] National Toxicology Program [NTP] U.S. Food and Drug Administration [FDA] Tox21 Assay overview: The Aryl hydrocarbon Receptor (AhR), a member of the family of basic helix-loop-helix transcription factors, is crucial to adaptive responses to environmental changes. […]
Inconclusive results are not listed. Calls of active or inactive are those of the source. The call rests on the fitted dose curve; in most records, active means well fitted activation curve with a large enough effect in the repeat runs; inconclusive means weak or mixed curves; inactive means no such curve, though single readings can be large or run the other way.
Can you answer with just one of these options? active, inactive

Consider the worked cases shown below.
CCc1ccc(S(=O)(=O)O)cc1 = active
Nc1ncnc(Nc2ccc(Cl)cc2)n1 = active
CCOC(=O)COc1ccc2c(C)c(CCN(CC)CC)c(=O)oc2c1 = inactive

Kindly provide the recorded test outcome for the following molecule: CC(C(=O)O)c1ccc(N2Cc3ccccc3C2=O)cc1 (stereo not drawn)
active

====

Test: qHTS assay for identifying genotoxic compounds that show differential cytotoxicity against isogenic chicken DT40 cell lines with known DNA damage response pathways - Rev3 mutant cell line (AID 743014); further: nearly all actives have a fitted effect of over 55% in size; further: potency means the concentration at half of the fitted maximal effect
Conditions: chicken DT40 Rev3-/- viability, CellTiter-Glo, 40 h; series mostly up to 68.4 µM
Inconclusive results are not listed. Activity calls are given as the source filed them. Calls follow the shape of the dose curve; as a rule, active = well fitted cell-killing curve with a large enough effect in the repeat runs; inconclusive = weak or mixed curves, or effect the other way; inactive = no such curve, though single readings can be large or run the other way.
endpointLabel: Potency

Consider the reported Potency for these compounds:
CC[C@@H](C(=O)O)[C@@H]1O[C@@H]([C@@H](C)[C@H](O)[C@H](C)C(=O)[C@H](CC)[C@H]2O[C@]3(C=C[C@@H](O)[C@]4(CC[C@@](C)([C@H]5CC[C@](O)(CC)[C@H](C)O5)O4)O3)[C@H](C)C[C@@H]2C)[C@@H](C)C[C@@H]1C = 0.168 µM (active)
C=C1C(=O)O[C@H]2[C@H]1CC/C(C)=C\CC[C@@]1(C)O[C@@H]21 = 2.98 µM (active)
C=CCN1CCCC1CNC(=O)c1cc(S(N)(=O)=O)cc(OC)c1OC (stereo not drawn) = inactive
CCC(=O)c1ccc2c(c1)N(CCCN1CCN(CCO)CC1)c1ccccc1S2 = 2.66 µM (active)
CCOC(=O)[C@H](CCc1ccccc1)N[C@H]1CCCN2CCC[C@@H](C(=O)O)N2C1=O = inactive
CCOC(=O)C1=C(COCCN)NC(C)=C(C(=O)OC)C1c1ccccc1Cl (stereo not drawn) = 13.3 µM (active)

# input compound: "O=P(O)(O)OC[C@H]1O[C@](O)(COP(=O)(O)O)[C@@H](O)[C@@H]1O" ; wanted: its Potency
inactive

Could you share which Potency value was measured for CC(C)(C)C1(O)CCN2CC3c4ccccc4CCc4cccc(c43)C2C1 (stereo not drawn) ?
11.9 µM (active)

====

Assay: qHTS assay to identify small molecule antagonists of the androgen receptor (AR) signaling pathway using the MDA cell line - cell viability counter screen (AID 743041; further: nearly all actives have a fitted effect of over 45% in size)
Settings: MDA-kb2 viability, CellTiter-Fluor, 16 h, cells co-treated with R1881 androgen agonist; series mostly up to 70.3 µM
Description: National Center for Advancing Translational Sciences [NCATS] NIH Chemical Genomics Center [NCGC] U.S. Environmental Protection Agency [EPA] National Institutes of Environmental Health Sciences [NIEHS] National Toxicology Program [NTP] U.S. Food and Drug Administration [FDA] Androgen receptor (AR), a nuclear hormone receptor, plays a critical role in AR-dependent prostate cancer and other androgen related diseases. […]
Results filed as inconclusive are left out. Activity calls are given as the source filed them. The call rests on the fitted dose curve; in most records, active means well fitted cell-killing curve with a large enough effect in the repeat runs; inconclusive means weak or mixed curves, or effect the other way; inactive means flat fitted curve, though single readings scatter.
Your answer must be one of the following: class 1 for active, class 0 for inactive

NCCCC[C@H](N)C(=O)O = class 0
CC1(C)[C@@H]2CC[C@@]1(C)[C@H](OC(=O)CSC#N)C2 = class 0
O=[N+]([O-])c1ccc(Oc2ccc(N=C=S)cc2)cc1 = class 1
CO[C@H]1C[C@H](O[C@H]2[C@H](C)[C@@H](O[C@@H]3O[C@H](C)C[C@H](N(C)C)[C@H]3OC(C)=O)[C@@H](C)C[C@]3(CO3)C(=O)[C@H](C)[C@@H](OC(C)=O)[C@@H](C)[C@@H](C)OC(=O)[C@@H]2C)O[C@@H](C)[C@@H]1OC(C)=O = class 0
CC(C)[C@@H](C)/C=C/[C@@H](C)[C@H]1CC[C@H]2/C(=C/C=C3\C[C@@H](O)CC[C@@H]3C)CCC[C@]12C = class 0

// param item: CC1(C)S[C@@H]2[C@H](NC(=O)C(C(=O)Oc3ccc4c(c3)CCC4)c3ccccc3)C(=O)N2[C@H]1C(=O)O (some centres undefined) ; yields the recorded call
class 0

Tell me the recorded outcome of this test for "CC1(C)N=C(N)N=C(N)N1c1ccc(Cl)cc1" .
class 0

Any idea what this test logged for "C#C[C@]1(O)CC[C@H]2[C@@H]3CCC4=CCCC[C@@H]4[C@H]3C(=C)C[C@@]21CC" ?
class 0

I'd appreciate the recorded outcome for CC(C)(C)NCC(O)CSc1nc(-c2ccc(C(N)=O)s2)cs1 (centres undefined) from this test.
class 0

====

Target: Estrogen receptor (Homo sapiens)
Assay: qHTS assay to identify small molecule agonists of the estrogen receptor alpha (ER-alpha) signaling pathway using the BG1 cell line (AID 743079); further: nearly all actives have a fitted effect of over 20% in size; on activation: on the % scale 0 is the no-effect control and ±100 the full control effect
Details: BG1Luc4E2 cells, ERE-luciferase agonist, 22 h
Results filed as inconclusive are left out. The source made the active and inactive calls. The call rests on the fitted dose curve; in most records, active means well fitted activation curve with a large enough effect in the repeat runs; inconclusive means weak or mixed curves, or effect the other way; inactive means no such curve, though single readings can be large or run the other way.
Mark one answer only. Choices: active, inactive

Here are 6 compounds together with their reported answers.
O=C1c2ccccc2C(=O)C1c1ccc(Cl)cc1 = inactive
O=P(O)(O)OC(CO)CO = inactive
CC(=C\c1ccccc1)/C=C1/SC(=S)N(CC(=O)O)C1=O = inactive
N#CC(c1ccc(Cl)cc1)c1c(Cl)cc(-n2ncc(=O)[nH]c2=O)cc1Cl (stereo unspecified) = inactive
O=C(O)[C@H](CC(=O)N1C[C@H]2CCCC[C@H]2C1)Cc1ccccc1 = active
O=C1NCCN1c1ncc([N+](=O)[O-])s1 = inactive

For the next question, use this compound.
Look up the recorded call for "S=C1SCN(Cc2ccccc2)CN1Cc1ccccc1" in this test.
active

====

Biological target: Estrogen receptor (Homo sapiens) (UniProt P03372)
Sequence (P03372 whole entry, looked up): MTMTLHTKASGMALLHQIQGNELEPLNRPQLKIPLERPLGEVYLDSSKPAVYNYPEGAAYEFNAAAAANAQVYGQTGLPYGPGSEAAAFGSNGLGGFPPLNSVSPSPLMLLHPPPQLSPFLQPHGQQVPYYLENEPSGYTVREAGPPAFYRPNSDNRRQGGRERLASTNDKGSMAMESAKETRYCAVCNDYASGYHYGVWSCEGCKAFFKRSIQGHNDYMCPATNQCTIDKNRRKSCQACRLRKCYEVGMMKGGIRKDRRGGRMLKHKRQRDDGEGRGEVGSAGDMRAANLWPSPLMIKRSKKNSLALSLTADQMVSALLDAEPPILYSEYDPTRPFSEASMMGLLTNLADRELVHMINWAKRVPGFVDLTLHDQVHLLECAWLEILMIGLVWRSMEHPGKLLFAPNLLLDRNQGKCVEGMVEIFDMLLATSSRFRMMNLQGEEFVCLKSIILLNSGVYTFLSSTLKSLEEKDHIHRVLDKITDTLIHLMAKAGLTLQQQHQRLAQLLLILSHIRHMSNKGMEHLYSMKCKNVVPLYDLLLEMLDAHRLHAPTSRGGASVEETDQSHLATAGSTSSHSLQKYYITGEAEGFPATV
Assay: qHTS assay to identify small molecule agonists of the estrogen receptor alpha (ER-alpha) signaling pathway using the BG1 cell line (AID 743079); further: nearly all actives have a fitted effect of over 20% in size; on activation: on the % scale 0 is the no-effect control and ±100 the full control effect
Conditions: BG1Luc4E2 cells, ERE-luciferase agonist, 22 h
Results filed as inconclusive are left out. Activity calls are given as the source filed them. Calls follow the shape of the dose curve; as a rule, active = well fitted activation curve with a large enough effect in the repeat runs; inconclusive = weak or mixed curves, or effect the other way; inactive = no such curve, though single readings can be large or run the other way.
Thanks in advance; please answer with one of these: T for active, F for inactive

Solved cases below.
CC(C)(C)NCC(O)CSc1nc(-c2ccc(C(N)=O)s2)cs1 (stereo unspecified) = F
CC(C)[C@@H](C)/C=C/[C@@H](C)[C@H]1CC[C@H]2/C(=C/C=C3\C[C@@H](O)CC[C@@H]3C)CCC[C@]12C = F
OC[C@H]1OC([S-])[C@H](O)[C@@H](O)[C@@H]1O.[Au+] (stereo partly specified) = F
CCCCCCCCCCCCCCCCCC[N+](C)(C)CCC[Si](OC)(OC)OC = T
OC[C@H]1O[C@@H](n2cnc3c2NC=NC[C@H]3O)C[C@@H]1O = F
CN1CC(O)c2cc(N=NC(N)=O)c(O)cc21 (stereo unspecified) = F
CC(O)[C@H]1CC[C@H]2[C@@H]3CC[C@@H]4C[C@@H](O)CC[C@]4(C)[C@H]3CC[C@]12C (stereo partly specified) = T
NC(=O)c1ccc[n+]([C@@H]2O[C@H](COP(=O)([O-])OP(=O)(O)OC[C@H]3O[C@@H](n4cnc5c(N)ncnc54)[C@H](O)[C@@H]3O)[C@@H](O)[C@H]2O)c1 = F

Attention now shifts to the item below.
Just curious, what result did "O=C(O)COc1ccc(CCNS(=O)(=O)c2ccccc2)s1" get here?
F

====

Biological target: Glucocorticoid receptor (Homo sapiens) (UniProt P04150)
Sequence (P04150 whole entry, looked up): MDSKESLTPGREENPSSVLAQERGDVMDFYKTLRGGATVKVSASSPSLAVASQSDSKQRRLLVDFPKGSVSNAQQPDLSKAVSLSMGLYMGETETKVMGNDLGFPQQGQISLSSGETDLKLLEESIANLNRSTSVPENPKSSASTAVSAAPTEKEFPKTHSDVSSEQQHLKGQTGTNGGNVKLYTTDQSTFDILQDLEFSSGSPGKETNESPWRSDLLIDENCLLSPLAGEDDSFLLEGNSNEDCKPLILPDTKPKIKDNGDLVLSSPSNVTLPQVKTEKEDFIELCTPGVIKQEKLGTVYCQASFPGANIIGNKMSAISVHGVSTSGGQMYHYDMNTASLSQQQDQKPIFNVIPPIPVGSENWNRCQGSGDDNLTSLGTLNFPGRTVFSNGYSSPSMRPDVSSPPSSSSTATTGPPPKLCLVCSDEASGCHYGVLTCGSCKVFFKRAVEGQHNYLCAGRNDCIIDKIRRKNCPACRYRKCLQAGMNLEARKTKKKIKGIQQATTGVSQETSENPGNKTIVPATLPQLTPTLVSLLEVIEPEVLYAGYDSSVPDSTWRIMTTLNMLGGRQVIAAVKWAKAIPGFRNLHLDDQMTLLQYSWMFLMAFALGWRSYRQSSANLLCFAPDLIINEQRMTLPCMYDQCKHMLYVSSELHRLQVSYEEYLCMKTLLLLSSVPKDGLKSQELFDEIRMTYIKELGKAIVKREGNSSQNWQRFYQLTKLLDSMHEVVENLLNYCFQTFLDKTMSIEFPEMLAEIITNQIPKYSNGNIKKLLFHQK
Test: qHTS assay to identify small molecule agonists of the glucocorticoid receptor (GR) signaling pathway (AID 720691); further: on the % scale 0 is the no-effect control and ±100 the full control effect
Details: GR-bla HeLa, beta-lactamase reporter ratio, 18 h
Results filed as inconclusive are left out. Active and inactive are the calls of the source. Calls follow the shape of the dose curve; as a rule, active = well fitted activation curve with a large enough effect in the signal ratio in the repeat runs (not every such curve was filed as active); inconclusive = weak or mixed curves, or effect the other way; inactive = no such curve, though single readings can be large or run the other way; the % refers to the signal ratio.
endpointLabel: outcome

Known results for molecules:
CN[C@@H]1[C@H](O[C@H]2[C@H](O[C@H]3[C@H](O)[C@@H](O)[C@H](N=C(N)N)[C@@H](O)[C@@H]3N=C(N)N)O[C@@H](C)[C@]2(O)CO)O[C@@H](CO)[C@H](O)[C@H]1O = inactive
Cc1cc2nc3c(=O)[nH]c(=O)nc-3n(C[C@H](O)[C@H](O)[C@H](O)COP(=O)(O)OP(=O)(O)OC[C@H]3O[C@@H](n4cnc5c(N)ncnc54)[C@H](O)[C@@H]3O)c2cc1C = inactive
CN[C@@H]1[C@H](O[C@H]2[C@H](O[C@H]3[C@H](O)[C@@H](O)[C@H](N=C(N)N)[C@@H](O)[C@@H]3N=C(N)N)O[C@@H](C)[C@]2(O)C=O)O[C@@H](CO)[C@H](O)[C@H]1O = inactive
O=C(CO)[C@@H](O)[C@H](O)[C@@H](O)C(=O)O = inactive
Nc1ncnc2c1ncn2CCOCP(=O)(O)O = inactive

Name the reported outcome value associated with the molecule "CO[C@H]1O[C@@H]2O[C@@]3(C)CC[C@H]4[C@H](C)CC[C@@H]([C@H]1C)[C@@]24OO3"
inactive

What does the record list as outcome for "CCCCC(F)(F)[C@@]1(O)CC[C@H]2[C@@H](CC(=O)[C@@H]2CCCCCCC(=O)O)O1" ?
inactive
